Reported Papp is given for each of the following molecules.
# EXPERIMENT: Permeability of the compound
# Assay type: ADME
# SETUP_CONDITIONS: not told; read-out: permeability
PROPERTY_LABEL: Papp

chem_smiles=CC(C)(O)c1cnc(N2C[C@@]3(CC[C@@H](O)[C@](C)(Cn4cnc5ccc(C#N)cc54)C3)OC2=O)cn1 property_label=Papp experimental_result="3.2 ×10⁻⁶ cm/s"
chem_smiles=CC(C)(O)c1cnc(N2C[C@@]3(CCC[C@](C)(Cn4cnc5ccc(C#N)cc54)C3)OC2=O)cn1 property_label=Papp experimental_result="38.5 ×10⁻⁶ cm/s"
